Here, each record is paired with measured kon data.
# system: monomeric alpha-synuclein, P37840
# protocolDetails: SPR, captured mAb
# condition: remark: other sources report otherwise
Just the number in M⁻¹ s⁻¹, nothing appended.

# binder, kon, M⁻¹ s⁻¹
rows = [
    ("ACI-8033-4F3-Ab1 (antibody, V domains shown) VH: EVQLQQSGPELVKPGASVKISCKASGYTFTDYYMNWVKQSHGKSLEWIGDINPNTGTNSYNQKFKGRASLTVDKFSSAAYMELRSLTSEDSAVYYCARTGYGDPISSYYYALDYWGQGTSVTVSS VL: DIVMSQSPSSLAVSAGEKVTMSCKSSQSLLNSRTRKNYLAWYQQKPGQSPKLLIYWASTRESGVPDRFTGSGSGTDFTLTISSVQAEDLAVYYCKQSYNLWTFGGGTKLEIK", 97000),
    ("ACI-7067-1102G3-Ab1 (antibody, V domains shown) VH: EVKLEESGGGLVQPGGSMKLSCAASGFTFSDAWMNWVRQSPEKGLEWVAEIRNKAHNHATYYAESVKGRFTISGDDSKSSVYLQMNNLRAEDTGIYYCTIYSYWGQGTLVTVSA VL: SIVMTQTPKFLLVSAGDRVTITCKASQSVTKDVAWYQQKPGQSPKLLIYSTSNRYSGVPDRFTGSGYGTDFTFTINTVQTEDLAVYFCQQDYRIPYTFGGGTKLEIK", 129000),
]

Now consider a different binder.
Documented kon of ACI-7067-1106A8-Ab2 (antibody, V domains shown) VH: EVQLVESGGGLVQPKGSLKLSCAASGFTFNTYAMHWVRQAPGKGLEWVARIRSKGSNYATNYADSVKDRFTISRDDSQSMLYLQMNNLKTEDTAMYYCVRGHGSSYFSYWGQGTLVTVSA VL: QIVLTQSPAIMSASPGEKVTMTCSASSSVSYMHWYQQKSGTSPKRWIYDTSNLASGVPARFSGSGSGTSYSLTISSMEAEDAATYYCQQWNSHPPTFGAGTKLELK : 218000
